# MEASURED ON: ~100 representative kinases (Homo sapiens, UniProt Q13153)
# Construct: Recombinant protein kinase domains with a concentration of 2 μM
# Sequence (Q13153 whole entry, the tested form may be a part): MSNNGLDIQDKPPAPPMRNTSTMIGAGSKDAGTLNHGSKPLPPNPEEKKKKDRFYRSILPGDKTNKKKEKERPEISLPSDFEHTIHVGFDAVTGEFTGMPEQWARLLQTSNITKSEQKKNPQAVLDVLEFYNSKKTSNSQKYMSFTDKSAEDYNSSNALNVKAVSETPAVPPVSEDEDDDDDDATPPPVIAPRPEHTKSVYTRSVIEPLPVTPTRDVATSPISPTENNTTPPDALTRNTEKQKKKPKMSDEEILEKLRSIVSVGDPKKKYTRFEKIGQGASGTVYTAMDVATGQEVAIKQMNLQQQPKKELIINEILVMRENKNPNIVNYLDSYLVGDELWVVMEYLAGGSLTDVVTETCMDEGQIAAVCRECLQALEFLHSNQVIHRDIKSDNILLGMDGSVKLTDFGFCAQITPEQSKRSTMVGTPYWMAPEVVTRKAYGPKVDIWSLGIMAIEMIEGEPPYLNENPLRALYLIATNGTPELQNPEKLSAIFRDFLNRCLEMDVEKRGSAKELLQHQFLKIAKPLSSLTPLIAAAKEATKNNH
# TEST SUMMARY: DSF 100 kinase selectivity screen;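 also: compound tested at 20 µM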
# Format: binding
# PARTICULARS: protein PAK1; average of three replicates

# COMPOUND, MEASURED ON, dTm (K)
measured = [
    ("CC(=O)N1CCN(c2nc(Cl)nc3[nH]cc(-c4cccc(NC(=O)Nc5cc(C(C)(C)C)nn5-c5ccc(C)cc5)c4)c23)CC1", "~100 representative kinases (Homo sapiens, UniProt Q13153)", 0.00835),
    ("COc1cc(C(=O)N2CCOCC2)c(F)cc1Nc1nc(N(C)C)c2c(Cl)c[nH]c2n1", "~100 representative kinases (Homo sapiens, UniProt Q13153)", -1.33),
    ("Cc1cc(NC(=O)C2(C(=O)Nc3ccc(F)cc3)CC2)cc(-c2c[nH]c3ncnc(N4CCOCC4)c23)c1", "~100 representative kinases (Homo sapiens, UniProt Q13153)", 1.55),
    ("COc1cc2c(Oc3ccc(NC(=O)C4(C(=O)Nc5ccc(F)cc5)CC4)cc3F)ccnc2cc1OCCCN1CCOCC1 [Foretinib, reference compound]", "~100 representative kinases (Homo sapiens, UniProt Q13153)", 1.69),
    ("Cc1ccc(NC(=O)C2(C(=O)Nc3cccc(-c4c[nH]c5ncnc(N6CCOCC6)c45)c3)CC2)cc1", "~100 representative kinases (Homo sapiens, UniProt Q13153)", 2.44),
    ("CCc1ccc(NC(=O)C2(C(=O)Nc3cccc(-c4c[nH]c5ncnc(N6CCOCC6)c45)c3)CC2)cc1", "~100 representative kinases (Homo sapiens, UniProt Q13153)", 1.40),
    ("CNC(=O)c1cc(Oc2ccc(NC(=O)Nc3cc(C(C)(C)C)nn3-c3ccc4ncccc4c3)c(F)c2)ccn1 [Rebastinib, reference compound]", "~100 representative kinases (Homo sapiens, UniProt Q13153)", 1.98),
    ("CCSc1nc(NC)c2c(-c3cccc(NC(=O)Nc4cc(C(C)(C)C)nn4-c4ccc(C)cc4)c3)c[nH]c2n1", "~100 representative kinases (Homo sapiens, UniProt Q13153)", -0.13),
    ("O=C(Nc1cccc(-c2c[nH]c3ncnc(N4CCOCC4)c23)c1)C1(C(=O)Nc2cccc3c2CCC3)CC1", "~100 representative kinases (Homo sapiens, UniProt Q13153)", 3.04),
    ("O=C(Nc1cccc(-c2c[nH]c3ncnc(N4CCOCC4)c23)c1)c1cccn(-c2ccc(F)cc2)c1=O", "~100 representative kinases (Homo sapiens, UniProt Q13153)", 4.33),
    ("COc1cc(NC(=O)C2(C(=O)Nc3cccc(-c4c[nH]c5ncnc(N6CCOCC6)c45)c3)CC2)ccc1F", "~100 representative kinases (Homo sapiens, UniProt Q13153)", 4.31),
    ("O=C(Nc1cc(F)cc(Br)c1)C1(C(=O)Nc2cccc(-c3c[nH]c4ncnc(N5CCOCC5)c34)c2)CC1", "~100 representative kinases (Homo sapiens, UniProt Q13153)", 3.33),
    ("C[C@@H]1CN(c2cc(-c3n[nH]c4ccc(OC5(C)CC5)cc34)ncn2)C[C@H](C)O1", "~100 representative kinases (Homo sapiens, UniProt Q13153)", -0.13),
    ("O=C(Nc1ccc(Cl)cc1)C1(C(=O)Nc2cccc(-c3c[nH]c4ncnc(N5CCOCC5)c34)c2)CC1", "~100 representative kinases (Homo sapiens, UniProt Q13153)", 3.82),
    ("Cc1ccc(C(=O)Nc2ccc(CN3CCN(C)CC3)c(C(F)(F)F)c2)cc1C#Cc1cnc2[nH]ncc2c1 [GZD-824, reference compound]", "~100 representative kinases (Homo sapiens, UniProt Q13153)", 4.19),
    ("O=C(Nc1ccccc1)C1(C(=O)Nc2cccc(-c3c[nH]c4ncnc(N5CCOCC5)c34)c2)CC1", "~100 representative kinases (Homo sapiens, UniProt Q13153)", 1.90),
    ("COc1cc(S(C)(=O)=O)ccc1Nc1nc(N(C)C)c2c(Cl)c[nH]c2n1", "~100 representative kinases (Homo sapiens, UniProt Q13153)", -0.88),
    ("CCNc1nc(Nc2cc(F)c(C(=O)N3CCOCC3)cc2OC)ncc1C(F)(F)F", "~100 representative kinases (Homo sapiens, UniProt Q13153)", -0.11),
    ("O=C(Nc1cccc(-c2c[nH]c3ncnc(N4CCOCC4)c23)c1)C1(C(=O)Nc2ccc(F)c(F)c2)CC1", "~100 representative kinases (Homo sapiens, UniProt Q13153)", 3.52),
    ("O=C(Nc1cccc(-c2c[nH]c3ncnc(N4CCOCC4)c23)c1)C1(C(=O)Nc2ccc(F)cc2F)CC1", "~100 representative kinases (Homo sapiens, UniProt Q13153)", 1.05),
    ("CN[C@@H]1C[C@H]2O[C@@](C)([C@@H]1OC)n1c3ccccc3c3c4c(c5c6ccccc6n2c5c31)C(=O)NC4", "~100 representative kinases (Homo sapiens, UniProt Q13153)", 7.21),
    ("Cc1ccc(C(=O)Nc2ccc(CN3CCN(C)CC3)c(C(F)(F)F)c2)cc1C#Cc1c[nH]c2ncnc(N3CCOCC3)c12", "~100 representative kinases (Homo sapiens, UniProt Q13153)", 1.52),
    ("Cc1ccc(-n2nc(C(C)(C)C)cc2NC(=O)Nc2cccc(-c3c[nH]c4nc(Cl)nc(N5CCOCC5)c34)c2)cc1", "~100 representative kinases (Homo sapiens, UniProt Q13153)", 0.76),
    ("Cn1cc(-c2c[nH]c3ncnc(N4CCOCC4)c23)cc1C#N", "~100 representative kinases (Homo sapiens, UniProt Q13153)", -0.19),
    ("Cc1cc(F)ccc1NC(=O)C1(C(=O)Nc2cccc(-c3c[nH]c4ncnc(N5CCOCC5)c34)c2)CC1", "~100 representative kinases (Homo sapiens, UniProt Q13153)", 2.36),
    ("O=C(Nc1ccc(F)cc1)C1(C(=O)Nc2cccc(-c3c[nH]c4ncnc(N5CCOCC5)c34)c2)CC1", "~100 representative kinases (Homo sapiens, UniProt Q13153)", 2.06),
    ("O=C(Nc1cccc(-c2c[nH]c3ncnc(N4CCOCC4)c23)c1)C1(C(=O)Nc2ccc(F)c(Br)c2)CC1", "~100 representative kinases (Homo sapiens, UniProt Q13153)", 5.56),
    ("O=C(Nc1cccc(-c2c[nH]c3ncnc(N4CCOCC4)c23)c1)C1(C(=O)Nc2ccc(F)c(Cl)c2)CC1", "~100 representative kinases (Homo sapiens, UniProt Q13153)", 5.39),
]
